# Tested System: T1, murine GPC3-his protein (Sino Biological, Cat. No. 50989-M08B) (murine, UniProt Q8CFZ4 25-558)
# T1 construct: Bought protein; also called murine GPC3 protein
# T1 sequence (Q8CFZ4 25-558 limits assumed): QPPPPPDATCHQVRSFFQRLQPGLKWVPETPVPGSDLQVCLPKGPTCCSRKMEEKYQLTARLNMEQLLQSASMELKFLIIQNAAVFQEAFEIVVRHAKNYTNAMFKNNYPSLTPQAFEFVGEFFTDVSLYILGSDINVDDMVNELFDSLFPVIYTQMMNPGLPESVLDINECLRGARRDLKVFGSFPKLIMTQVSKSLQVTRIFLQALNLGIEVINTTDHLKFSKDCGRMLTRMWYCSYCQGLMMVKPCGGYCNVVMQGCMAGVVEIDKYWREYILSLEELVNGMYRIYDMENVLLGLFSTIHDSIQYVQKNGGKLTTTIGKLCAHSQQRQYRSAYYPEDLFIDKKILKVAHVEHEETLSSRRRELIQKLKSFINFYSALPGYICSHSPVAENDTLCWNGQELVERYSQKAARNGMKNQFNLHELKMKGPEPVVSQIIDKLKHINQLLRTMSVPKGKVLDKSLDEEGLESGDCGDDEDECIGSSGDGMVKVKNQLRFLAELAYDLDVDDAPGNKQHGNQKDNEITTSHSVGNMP
# Assay Remarks: ELISA, coated murine GPC3-His;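 further: antigen coated on plates at 1 µg/mL, test antibody bound for 2 h at 37 °C, detected with HRP-conjugated secondary antibody and TMB substrate after acid stop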
Measured OD450 at 1 nM antibody by item
Record the value in OD450 nm, omitting the unit from your answer.

F3.38.7 human-murine chimeric antibody (antibody, human IgG1, kappa, V domains shown) VH: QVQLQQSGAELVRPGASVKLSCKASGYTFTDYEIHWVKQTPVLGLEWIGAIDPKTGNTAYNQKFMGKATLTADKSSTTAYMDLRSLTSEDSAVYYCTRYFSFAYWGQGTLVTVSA VL: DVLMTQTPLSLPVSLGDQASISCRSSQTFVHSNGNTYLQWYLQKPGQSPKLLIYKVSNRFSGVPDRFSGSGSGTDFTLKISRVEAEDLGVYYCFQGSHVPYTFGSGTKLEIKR: 0.05

Quick note, OD450 at 1 nM antibody for F1.111.11 human-murine chimeric antibody (antibody, human IgG1, kappa, V domains shown) VH: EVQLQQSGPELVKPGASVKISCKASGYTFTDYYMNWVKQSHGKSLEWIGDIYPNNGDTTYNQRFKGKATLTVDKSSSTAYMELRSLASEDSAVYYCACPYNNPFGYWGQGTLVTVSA VL: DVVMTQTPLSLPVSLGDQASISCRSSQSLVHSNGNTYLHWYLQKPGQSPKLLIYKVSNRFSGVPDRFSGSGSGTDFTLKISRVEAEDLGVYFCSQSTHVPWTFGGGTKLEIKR landed at 2.67

The value of OD450 at 1 nM antibody measured for the binder F2.23.8 human-murine chimeric antibody (antibody, human IgG1, kappa, V domains shown) VH: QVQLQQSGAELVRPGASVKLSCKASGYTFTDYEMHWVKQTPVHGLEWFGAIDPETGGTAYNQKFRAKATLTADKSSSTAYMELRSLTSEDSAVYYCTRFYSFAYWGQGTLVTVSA VL: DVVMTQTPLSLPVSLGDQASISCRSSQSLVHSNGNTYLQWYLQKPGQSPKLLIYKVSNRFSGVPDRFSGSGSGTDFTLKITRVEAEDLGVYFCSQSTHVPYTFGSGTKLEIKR turned out to be 0.06
